Source listed as PubChem BioAssay (NCI).

growth values for the compounds below.
System: SN12C renal
Experiment: NCI-60 one-dose screen, 48 h (100 = growth as untreated, 0 = no growth, -100 = all killed)
Conditions: 10 µM unless noted
About 83,000 compounds went through this panel and 20% of them were active in at least one assay; those are over-represented in the sample as a whole. Calls of active or inactive are those of the source. Rule for the calls: active = growth percent below 10; inactive = the rest.

[[record]]
compound = "CCOC(=O)c1ccc(NC2=CC(=O)C(C)=C(C)C2=O)cc1"
result = "93.8% (inactive)"

[[record]]
compound = "O=c1nc(Nc2ccc([N+](=O)[O-])cc2O)sc2ccccc12"
result = "34.5% (inactive)"

[[record]]
compound = "COc1ccccc1N1CCN(C2=C(Cl)C(=O)c3ncccc3C2=O)CC1"
result = "88.3% (inactive)"


Here's the next entry for you.
// fetch growth given entry NC1C2CCC1CN(c1cnc(C(=O)Nc3cc(F)cc4cccnc34)cn1)C2 (centres undefined)
56.1% (inactive)

###

Tested on: HOP-62 NSCLC
Assay: NCI-60 one-dose screen, 48 h (100 = growth as untreated, 0 = no growth, -100 = all killed)
Conditions: 10 µM unless noted
The panel holds about 83,000 compounds, 20% with a hit somewhere; the sample as a whole holds those more often.
Mark MET for reported growth of 90% or greater; mark NOT MET for anything smaller.

[[record]]
compound = "C[C@]12CC[C@H]3[C@@H](CC=C4C[C@@H](O)CC[C@@]43C)[C@@H]1CC[C@@H]2[C@](C)(O)CCc1cccnc1"
assigned_label = "NOT MET"

[[record]]
compound = "O=C1c2ccccc2C23C(=C(c4cncnc4)c4ccccc42)CCCN13 (centres undefined)"
assigned_label = "MET"

[[record]]
compound = "Clc1cccc(/C=N/Nc2nc(N/N=C/c3cccc(Cl)c3)nc(N3CCOCC3)n2)c1"
assigned_label = "MET"

[[record]]
compound = "O=C(CSc1nc2ccccc2c(=O)n1-c1ccccc1)N/N=C/c1ccc(Oc2ccc(Br)cc2)cc1"
assigned_label = "NOT MET"

[[record]]
compound = "Cc1ccc(Nc2nc(SC(C)C)nc(-c3ccccc3)c2C#N)cc1"
assigned_label = "NOT MET"


State whether the measured growth reaches 90%, counting equality as reaching it, for CCOC(=O)c1c(NC(=O)c2ccc(C(F)(F)F)cc2)sc2c3c(ccc12)OCN(C)C3
NOT MET

State whether the measured growth reaches 90%, counting equality as reaching it, for Brc1cccc(-c2cc(-c3cnc4c(c3)OCCO4)n[nH]2)c1
NOT MET

State whether the measured growth reaches 90%, counting equality as reaching it, for Cc1ccc2c(n1)C(=O)C(Cl)=C(Nc1cccc(C(=O)OC(C)(C)C)c1)C2=O
MET

State whether the measured growth reaches 90%, counting equality as reaching it, for CCS(=O)(=O)Nc1ccc(C(=O)CC2(O)C(=O)Nc3ccccc32)cc1 (centres undefined)
MET

State whether the measured growth reaches 90%, counting equality as reaching it, for C#C[C@]1(O)CC[C@H]2[C@@H]3CC=C4c5sc(Nc6cc(Cl)ccc6OC)nc5CC[C@]4(C)[C@H]3CC[C@@]21C
NOT MET

State whether the measured growth reaches 90%, counting equality as reaching it, for N#Cc1c(-c2cccs2)cc(-c2cnccn2)nc1SCC(=O)N/N=C/c1ccccc1
NOT MET

State whether the measured growth reaches 90%, counting equality as reaching it, for N/C(=N\C(N)=N\c1nc2ccccc2s1)c1ccc(Cl)cc1
NOT MET
